# Test system: SN12C renal
# experimentNotes: NCI tumour cell line growth inhibition, 48 h
Kindly supply the reported TGI values for the records listed here.

Query block: Any idea what TGI was measured for CC1OC(OC2C(O)COC(OC3C(C)OC(OC4C(OC(=O)[C@]56CCC(C)(C)C[C@@H]5C5=CCC7[C@@]8(C)C[C@H](O)[C@H](OC9OC(CO)C(O)C(O)C9O)[C@@](C)(CO)[C@@H]8CC[C@@]7(C)[C@]5(C)CC6)OCC(O)C4O)C(O)C3OC3OCC(O)(CO)C3O)C2O)C(O)C(O)C1O (some centres undefined) ?
Result block: 16.4 µM

Query block: And for "COc1ccc(-c2nn(-c3ccc(NC(=O)c4ccc(Cl)c(Cl)c4)cc3)cc2-c2ccncc2)cc1Cl" ?
Result block: > 50 µM

Query block: And for OCC1OC(c2nc(C3=NCCCN3)cs2)C(O)C1O (centres undefined) ?
Result block: > 100 µM

Query block: And for "CC1(C)N=C(N)N=C(N)N1c1ccc(CCc2ccccc2)cc1" ?
Result block: > 78.1 µM

Query block: And for CCC(C)OC(=O)/C(Br)=C1/OC(=O)c2ccccc2-c2ccccc21 (centres undefined) ?
Result block: > 100 µM

Query block: And for "CC(=O)Oc1ccc2c(C)cc(=O)oc2c1OC(C)=O" ?
Result block: > 100 µM

Query block: And for CCSc1ncnc2c1ncn2C1OC(CO)C(O)C1O (centres undefined) ?
Result block: > 100 µM

Query block: And for COC(=O)C1=C(O)C(C(=O)OC)[C@]2(O)[C@H](C(=O)OC)[C@H]1C[C@@H](c1ccc(C(F)(F)F)cc1)[C@H]2C(=O)OC (some centres undefined) ?
Result block: 27.6 µM

Query block: And for "CN(C)C(n1cc2c(c1)-c1ccc(Cl)cc1C(c1ccccc1F)=NC2)n1cc2c(c1)-c1ccc(Cl)cc1C(c1ccccc1F)=NC2" ?
Result block: > 100 µM

Query block: And for "O=C(/C=C/c1cccc2ccccc12)c1ccccc1Cl" ?
Result block: > 100 µM

Query block: And for CCOC1OC(=O)c2cc3ccc4c(c3c(-c3ccc5c(c3)OCO5)c21)OCO4 (centres undefined) ?
Result block: > 100 µM

Query block: And for CC(=O)OC12C=CC(=O)N1c1ccccc1C(=O)O2 (centres undefined) ?
Result block: > 100 µM

Query block: And for COC(CNC(=O)C(C)NC(=O)/C=C/c1ccccc1)OC (centres undefined) ?
Result block: > 100 µM

Query block: And for COC(=O)C(Cc1c[nH]c2ccccc12)NP(=O)(O)OCC1OC(n2cc(I)c(=O)[nH]c2=O)CC1O (centres undefined) ?
Result block: > 100 µM

Query block: And for "CSc1nc(Nc2cccc(C(F)(F)F)c2)c2c(N)nn(C)c2n1" ?
Result block: > 100 µM

Query block: And for "N#C/C1=C(\N)CCSSSC1" ?
Result block: > 100 µM

Query block: And for "Cc1ccc(/C=C/C(=O)c2sc(-c3nc(C)c(C(=O)/C=C/c4ccc(C)cc4)s3)nc2C)cc1" ?
Result block: > 100 µM

Query block: And for "CN1C2CCC1CC(=CCOC(c1ccc(F)cc1)c1ccc(F)cc1)C2" ?
Result block: 33.5 µM

Query block: And for "S=C(S)NCNC(=S)S.[Zn+2]" ?
Result block: > 100 µM
